# tgt: IKZF1 (Homo sapiens, UniProt Q13422+Q96SW2)
# Construct: expressed in transfected cells
# Sequence (Q13422 whole entry, species assumed): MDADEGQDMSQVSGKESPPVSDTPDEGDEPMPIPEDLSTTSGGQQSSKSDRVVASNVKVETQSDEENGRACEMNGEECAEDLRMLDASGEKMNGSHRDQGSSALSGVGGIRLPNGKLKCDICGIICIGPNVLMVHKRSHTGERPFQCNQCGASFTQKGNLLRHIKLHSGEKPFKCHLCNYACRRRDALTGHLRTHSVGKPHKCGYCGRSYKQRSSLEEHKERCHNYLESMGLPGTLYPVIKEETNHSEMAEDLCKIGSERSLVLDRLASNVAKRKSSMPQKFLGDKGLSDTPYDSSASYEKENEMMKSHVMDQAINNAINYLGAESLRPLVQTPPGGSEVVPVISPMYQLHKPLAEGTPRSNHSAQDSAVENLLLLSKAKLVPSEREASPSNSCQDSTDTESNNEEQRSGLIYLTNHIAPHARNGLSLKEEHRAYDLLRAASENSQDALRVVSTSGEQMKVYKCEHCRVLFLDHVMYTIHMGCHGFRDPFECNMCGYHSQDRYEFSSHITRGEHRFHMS
# Sequence (Q96SW2 whole entry, species assumed): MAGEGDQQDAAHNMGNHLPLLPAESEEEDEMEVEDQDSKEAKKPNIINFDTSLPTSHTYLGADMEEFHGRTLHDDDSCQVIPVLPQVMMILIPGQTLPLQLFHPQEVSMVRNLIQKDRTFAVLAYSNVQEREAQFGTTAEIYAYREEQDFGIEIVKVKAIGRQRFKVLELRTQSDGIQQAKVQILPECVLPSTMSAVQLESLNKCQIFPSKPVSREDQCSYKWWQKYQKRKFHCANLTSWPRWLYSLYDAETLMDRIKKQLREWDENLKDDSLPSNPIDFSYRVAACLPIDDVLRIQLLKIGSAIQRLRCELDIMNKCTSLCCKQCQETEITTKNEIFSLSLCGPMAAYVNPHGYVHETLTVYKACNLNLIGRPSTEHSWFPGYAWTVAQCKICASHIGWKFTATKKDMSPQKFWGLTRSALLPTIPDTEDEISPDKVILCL
# Sequence (Q16531 whole entry partner, species assumed): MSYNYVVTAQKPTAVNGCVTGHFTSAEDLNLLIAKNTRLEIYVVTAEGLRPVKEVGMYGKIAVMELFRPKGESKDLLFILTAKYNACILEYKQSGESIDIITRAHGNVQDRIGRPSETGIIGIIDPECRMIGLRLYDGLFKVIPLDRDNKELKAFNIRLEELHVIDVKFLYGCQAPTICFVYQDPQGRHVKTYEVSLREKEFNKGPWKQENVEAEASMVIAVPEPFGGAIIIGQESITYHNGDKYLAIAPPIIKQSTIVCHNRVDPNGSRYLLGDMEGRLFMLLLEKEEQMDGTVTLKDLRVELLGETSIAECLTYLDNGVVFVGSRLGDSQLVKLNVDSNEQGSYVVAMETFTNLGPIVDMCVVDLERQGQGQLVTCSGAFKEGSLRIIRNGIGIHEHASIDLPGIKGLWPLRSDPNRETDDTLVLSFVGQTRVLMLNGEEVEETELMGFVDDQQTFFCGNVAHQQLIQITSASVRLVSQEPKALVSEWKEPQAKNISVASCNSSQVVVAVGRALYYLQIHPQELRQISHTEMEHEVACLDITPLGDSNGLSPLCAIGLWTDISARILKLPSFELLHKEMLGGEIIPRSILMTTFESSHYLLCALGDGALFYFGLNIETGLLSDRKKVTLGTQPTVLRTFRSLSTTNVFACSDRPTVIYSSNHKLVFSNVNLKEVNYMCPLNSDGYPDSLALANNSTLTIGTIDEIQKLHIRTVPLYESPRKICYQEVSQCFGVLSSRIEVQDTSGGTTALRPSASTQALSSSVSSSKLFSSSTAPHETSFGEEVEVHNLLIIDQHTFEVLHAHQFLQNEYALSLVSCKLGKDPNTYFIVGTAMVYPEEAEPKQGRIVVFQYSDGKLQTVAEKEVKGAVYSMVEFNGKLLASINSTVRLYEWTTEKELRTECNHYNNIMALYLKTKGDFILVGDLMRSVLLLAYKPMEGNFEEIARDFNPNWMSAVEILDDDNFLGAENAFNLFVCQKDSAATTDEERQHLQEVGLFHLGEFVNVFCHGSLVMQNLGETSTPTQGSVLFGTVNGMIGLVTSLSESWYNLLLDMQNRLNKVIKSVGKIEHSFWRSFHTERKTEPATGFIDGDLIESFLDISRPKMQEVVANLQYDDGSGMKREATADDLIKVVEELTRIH
# assay_info: Prolabel quantification of IKZF1 protein levels in GripTite 293 MSR cell line
# Format: cell-based
# condition_set: Ikaros degradation, Pro-label assay, read-out: IKZF1 EC50
Recorded log10(DC50), one value per entry.
property_label: log10(DC50) (log10 of the value in nM)

compound	log10(DC50)
C#Cc1ccc2c(N3CCC(=O)NC3=O)coc2c1 [Compound I-2]	1.78
O=C1CCN(c2coc3ccccc23)C(=O)N1 [Compound I-1]	1.76
O=C1CCN(c2coc3cc(I)ccc23)C(=O)N1 [Compound I-5]	2.11
O=C1CCN(c2noc3ccc(Cl)cc23)C(=O)N1 [Compound I-14]	1.40
Cc1ccc(CCOc2ccc3c(N4CCC(=O)NC4=O)noc3c2)cc1 [Compound I-15]	2.80
CN(C)CC#Cc1ccc2c(N3CCC(=O)NC3=O)coc2c1 [Compound I-11]	1.66
O=C1CCN(c2cnc3cc(C4=CCN(Cc5ccccc5)CC4)ccn23)C(=O)N1 [Compound I-8]	1.61
O=c1ccn(-c2cnc3cc(C4=CCN(Cc5ccccc5)CC4)ccn23)c(=O)[nH]1 [Compound I-17]	2.63
O=C1CCN(c2coc3ccc(NC(=O)Oc4ccccc4)cc23)C(=O)N1 [Compound I-6]	2.08
Cc1ccc2occ(N3CCC(=O)NC3=O)c2c1 [Compound I-3]	1.20
